Some variants, each annotated with its measured protein stability index.
B1: DLC1 (parent)
chain: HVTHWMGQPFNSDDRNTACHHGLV

Variants of: B1
ASSAY: protein stability index of a GFP-peptide fusion (GPS, HEK-293T) (PSI 1-6); higher = more stable;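 note: lentivirally expressed fusions sorted by FACS into six bins by GFP to DsRed ratio, PSI derived from sequencing read proportions per bin multiplied by bin number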
CONDITION_SUMMARY: c terminus: a fixed tail appended

Below are worked cases with known answers.
Query (variant): HVTHWMGQPFNDDDRNTACHHGLV [S12D] ; field requested: protein stability index 2.62

Next entry: HVTHWMGQPFNADDRNTACHHGLV [S12A] 2.02

Next entry: HVTHWMGQPFNSWDRNTACHHGLV [D13W] 1.6

Next entry: HGTHWMGQPFNSDDRNTACHHGLV [V2G] 3.3

Next entry: HVTHWMGQPFNSTDRNTACHHGLV [D13T] 1.94

Others:
Query (variant): HVTHWMGQYFNSDDRNTACHHGLV [P9Y] ; field requested: protein stability index 2.43

Next entry: HVTHWMGGPFNSDDRNTACHHGLV [Q8G] 1.81
